target_desc: UniProt Q13507
Sequence (Q13507 whole entry): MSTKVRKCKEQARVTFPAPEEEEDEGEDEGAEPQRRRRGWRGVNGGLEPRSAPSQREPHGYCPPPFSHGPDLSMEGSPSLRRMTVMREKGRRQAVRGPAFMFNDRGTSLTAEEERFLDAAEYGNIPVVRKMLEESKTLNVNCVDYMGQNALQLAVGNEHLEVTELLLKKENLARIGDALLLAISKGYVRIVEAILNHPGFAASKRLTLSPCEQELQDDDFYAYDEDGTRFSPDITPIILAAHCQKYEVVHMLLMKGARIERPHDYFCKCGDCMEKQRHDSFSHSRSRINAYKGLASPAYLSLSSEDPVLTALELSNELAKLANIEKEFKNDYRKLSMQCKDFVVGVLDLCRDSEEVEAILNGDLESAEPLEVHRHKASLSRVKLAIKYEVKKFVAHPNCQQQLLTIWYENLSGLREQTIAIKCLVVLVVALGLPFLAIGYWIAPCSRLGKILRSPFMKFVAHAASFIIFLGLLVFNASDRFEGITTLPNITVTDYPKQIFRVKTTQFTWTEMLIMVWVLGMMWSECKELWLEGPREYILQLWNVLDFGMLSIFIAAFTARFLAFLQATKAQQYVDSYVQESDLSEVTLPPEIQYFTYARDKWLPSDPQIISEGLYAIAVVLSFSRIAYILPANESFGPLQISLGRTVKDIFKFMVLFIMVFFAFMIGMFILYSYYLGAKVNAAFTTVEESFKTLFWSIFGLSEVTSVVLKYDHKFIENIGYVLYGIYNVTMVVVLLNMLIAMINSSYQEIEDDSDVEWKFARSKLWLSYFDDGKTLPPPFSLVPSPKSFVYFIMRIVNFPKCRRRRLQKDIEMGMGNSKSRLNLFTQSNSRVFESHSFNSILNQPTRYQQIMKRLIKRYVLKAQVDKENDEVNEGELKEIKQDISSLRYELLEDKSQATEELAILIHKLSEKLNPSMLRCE
method_description: [Ca2+]i recordings (Fura-2), TRPC3:C3 in HEK T-REx cells
condition_context: HEK T-REx; activator OAG (100 μM)
Protocol: Based on the findings described above, we wondered whether AC1903—which is typically used as a TRPC5 inhibitor at concentrations of 30–100 μM in cellular assays ([29], [56])—might have limited selectivity for TRPC5 channels and whether its effect on intracellular G418 levels and PTC readthrough might be the consequence of inhibition of other or multiple targets. All well-characterized TRPC channel inhibitors reported to date modulate multiple TRP(C) channels ([34], [35], [36]). […]
pIC50: −log10 of the molar value.
assay_metric: pIC50

c1ccc(Cn2c(NCc3ccco3)nc3ccccc32)cc1    5.28

The values you see were collected from paper PMC8808171.
